# reported apparent KD of K4 kissing-loop reporter; entries follow
test system: K4 kissing-loop RNA reporter; test: apparent KD of K4 kissing-loop reporter; higher = weaker reporter binding; settings: Eterna round: R107; input ligand: tryptophan 2.4 mM;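 also: bound reporter read as fluorescence of individual clusters on recovered sequencing chips by microscopy, with normalized cluster intensities fitted with a binding model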
Give the number first and the unit second.

AAGAGGUAGGCGGCCGCCACUUGUUGUGAACACAUACGAGCCAGUGAUGUUGGUAUUGUGUGCGGAAGGACCGGGCCUACCUGAA [Exclusion - Tryptophan B (Freestyle 21)] = 140 nM
UGGAGUUGACGAAAAGUCAACUCCUGAGAUACCAGUGACGAAAGUCACCCUUGGCAGCUCACUGGCAGUGAUGUUGCGCGAUAAA [#23 K4 Theophylline A Same State] = 402 nM
UAGUCCUAGUGAUCCUUAUCAAGUGGUGGGCGAGGACCGGUACGGCCGCCACUCGACUAUGCAGUGAUGUUGCAAUCCGGACAAU [Exclusion - Tryptophan A (Freestyle 13)] = 179 nM
UAUUGCCACAGAGUGAUGUUCUGGCCGGAUACCAGCAUGCAAUUAUGCCCUUGGCAGCCGGAUGCGCGUCCAGCCACCGGGCCUG [theeternabot_exclusion_KL_Theo_A_29] = 1140 nM
CGCGCGGGUUUGAGAGGGUUUGCGCGAAGUGAGGAUAUUUAGGGAGAAAGAAGGCACUAUAAAAUAUAGUGAUGUUAUAUAAGGG [SSFMNA.I] = 269 nM

The sequence UGAUACCAGACGGCCGCCACUAGGACCGGGAGUGAUGUUCCAAAAUUAAAAUACUCGGCCGCCACUAGGACCGGGUCUGGUAUCU [TrypBX 25 #DoubleAptamer #SwitchBubble] showed apparent KD of K4 kissing-loop reporter equal to 75.4 nM

response.value for GUACCAGUGAUGUUGGUAGGCGAGCGGGAUACCAGCCAAGACUCAGGCCCUUGGCAGCCCACAUAUCCCACGUAGGUAGUAGCUC [Same State - Theophylline A (Freestyle 17)] (field: apparent KD of K4 kissing-loop reporter) = 92.9 nM

Form: sequence = GCUAUGGUAGGAAGGAGCGCUUACUCGGUAAUAAGAGUGAUGUUCGAUACCGAGUAUUUAUAGCAGGUAGGUCGCCUACUAUAGC [Arginine B K4 5] ; apparent KD of K4 kissing-loop reporter = 227 nM

apparent KD of K4 kissing-loop reporter in this record for UGGAUAUAGUGAUGUUAUAUAGAGAUGGAUACCAGCAAAGAGAAUUGCCCUUGGCAGCCGAAAGAAGUAUCAUUAGAGAAGAAUG [ExTheophyl.Af] : 206 nM

Summary for this sequence, AACCACUCGUUACAUCACUAUCGAGUGGAACGAGGACCGGUACGGCCGCCACUCGGUAUCUUGCAGUGAUGUUGCAAGAAAGAAU [KL-SSTryp-A #dotplot2 strengthened] : apparent KD of K4 kissing-loop reporter is 163 nM

# sequence AAGCGUGUGGCGGCCGCCACUAGUCUCCAGUGAUGUUGGAGAUAUCACGUAAGUGAUAUCCGACAUAGGACCGGGCCAUAUGGAA [Same State - Tryptophan B (Freestyle 22)] ; its apparent KD of K4 kissing-loop reporter = 207 nM

get_value(item= CCUAUCUCAUACGAUACCAGUCUAUUAAAACGAGUGAUGUUCGAAUAUUUGCCAUAUAAUGACCCUUGGCAGCGUAUGGGAUAGG [Ex Theophylline B K4 9] , readout=apparent KD of K4 kissing-loop reporter) returns 190 nM

Record summary for AAAACUAUCAGAAGGAGCGUGGAAUAUUCAUCUAUAUUUAAUACGAGUGAUGUUCGUAAUUCACAGGUAGGUCGCUGAUCAAUAA [JR_ExcArginiB_Sub007] : reported apparent KD of K4 kissing-loop reporter = 171 nM
